- Tested on: aromatase
- assay method text: Selectivity index, ratio of IC50 for GFP-expressing African green monkey Vero cells to IC50 for aromatase (unknown origin)
- Type: toxicity
- condition notes: read-out: Ratio IC50

[
  {
    "entry smiles": "O=C1Nc2ccccc2C1(c1[nH]c2ccccc2c1CCNS(=O)(=O)c1cccc([N+](=O)[O-])c1)c1[nH]c2ccccc2c1CCNS(=O)(=O)c1cccc([N+](=O)[O-])c1",
    "selectivity ratio": "> 5.13"
  },
  {
    "entry smiles": "Cc1ccc(S(=O)(=O)NCCc2c(C(c3ccccc3)c3[nH]c4ccccc4c3CCNS(=O)(=O)c3ccc(C)cc3)[nH]c3ccccc23)cc1",
    "selectivity ratio": "> 5.86"
  },
  {
    "entry smiles": "O=[N+]([O-])c1ccc(S(=O)(=O)NCCc2c(C(c3ccccc3O)c3[nH]c4ccccc4c3CCNS(=O)(=O)c3ccc([N+](=O)[O-])cc3)[nH]c3ccccc23)cc1",
    "selectivity ratio": "> 22.5"
  },
  {
    "entry smiles": "O=C1Nc2ccccc2C1(c1[nH]c2ccccc2c1CCNS(=O)(=O)c1ccccc1[N+](=O)[O-])c1[nH]c2ccccc2c1CCNS(=O)(=O)c1ccccc1[N+](=O)[O-]",
    "selectivity ratio": "> 6.22"
  },
  {
    "entry smiles": "COc1ccc(S(=O)(=O)NCCc2c(C(c3ccc(O)cc3)c3[nH]c4ccccc4c3CCNS(=O)(=O)c3ccc(OC)cc3)[nH]c3ccccc23)cc1",
    "selectivity ratio": "> 93.4"
  },
  {
    "entry smiles": "O=S(=O)(NCCc1c(C(c2ccc(F)cc2)c2[nH]c3ccccc3c2CCNS(=O)(=O)c2ccc(C(F)(F)F)cc2)[nH]c2ccccc12)c1ccc(C(F)(F)F)cc1",
    "selectivity ratio": 3.42
  },
  {
    "entry smiles": "N#Cc1ccc(C(c2[nH]c3ccccc3c2CCNS(=O)(=O)c2ccc(Cl)cc2)c2[nH]c3ccccc3c2CCNS(=O)(=O)c2ccc(Cl)cc2)cc1",
    "selectivity ratio": "> 11.6"
  }
]

###

- target under test: Aromatase (Homo sapiens, UniProt P11511)
- Sequence (P11511 whole entry): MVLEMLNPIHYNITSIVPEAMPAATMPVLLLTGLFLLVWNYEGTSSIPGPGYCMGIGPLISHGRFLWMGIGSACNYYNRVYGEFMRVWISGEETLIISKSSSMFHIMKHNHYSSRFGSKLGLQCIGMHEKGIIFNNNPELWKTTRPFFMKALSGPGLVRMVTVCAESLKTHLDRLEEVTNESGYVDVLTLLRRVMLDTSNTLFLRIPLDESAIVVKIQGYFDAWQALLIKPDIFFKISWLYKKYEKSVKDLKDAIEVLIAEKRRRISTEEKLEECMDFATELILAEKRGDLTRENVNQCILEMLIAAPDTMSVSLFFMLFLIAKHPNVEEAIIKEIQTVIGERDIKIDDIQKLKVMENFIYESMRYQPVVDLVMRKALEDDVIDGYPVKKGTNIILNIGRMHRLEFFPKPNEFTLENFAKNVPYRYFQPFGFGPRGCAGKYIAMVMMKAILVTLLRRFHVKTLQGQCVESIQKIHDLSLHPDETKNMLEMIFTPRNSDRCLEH
pIC50: −log10 of the molar value.

[
  {
    "entry smiles": "O=S(=O)(NCCc1c(C(c2ccc(C(F)(F)F)cc2)c2[nH]c3ccccc3c2CCNS(=O)(=O)c2ccc(Br)cc2)[nH]c2ccccc12)c1ccc(Br)cc1",
    "pIC50": 5.42
  },
  {
    "entry smiles": "O=[N+]([O-])c1ccc(S(=O)(=O)NCCc2c(C(c3ccccc3)c3[nH]c4ccccc4c3CCNS(=O)(=O)c3ccc([N+](=O)[O-])cc3)[nH]c3ccccc23)cc1",
    "pIC50": 4.95
  },
  {
    "entry smiles": "O=S(=O)(NCCc1c(C(c2ccc3c(c2)Cc2ccccc2-3)c2[nH]c3ccccc3c2CCNS(=O)(=O)c2ccc(Cl)cc2)[nH]c2ccccc12)c1ccc(Cl)cc1",
    "pIC50": 5.06
  },
  {
    "entry smiles": "O=S(=O)(NCCc1c(C(c2ccc(O)cc2)c2[nH]c3ccccc3c2CCNS(=O)(=O)c2ccc(C(F)(F)F)cc2)[nH]c2ccccc12)c1ccc(C(F)(F)F)cc1",
    "pIC50": 5.89
  },
  {
    "entry smiles": "O=S(=O)(NCCc1c(C(c2ccc(Br)cc2)c2[nH]c3ccccc3c2CCNS(=O)(=O)c2ccc(C(F)(F)F)cc2)[nH]c2ccccc12)c1ccc(C(F)(F)F)cc1",
    "pIC50": 5.47
  }
]
